Can you tell me ADCC EC50, Jurkat-CD16a v158-NFAT-luciferase effector cells, NUGC-4 target cells for the items I'm about to list?
# Tested target: human CLDN18.2 (human)
# Method description: cell-based or functional assay
Numbers only, in nM.

-- ask What value of measured ADCC EC50, Jurkat-CD16a v158-NFAT-luciferase effector cells, NUGC-4 target cells is listed for IMAB362 (antibody, human IgG1, kappa, V domains shown, Positive control, prepared in-house; also called Claudiximab; TMAB362 [sic]) VH: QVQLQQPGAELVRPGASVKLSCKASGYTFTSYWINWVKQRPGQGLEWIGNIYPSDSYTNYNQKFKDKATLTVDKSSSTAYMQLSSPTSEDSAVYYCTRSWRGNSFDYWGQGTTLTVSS VL: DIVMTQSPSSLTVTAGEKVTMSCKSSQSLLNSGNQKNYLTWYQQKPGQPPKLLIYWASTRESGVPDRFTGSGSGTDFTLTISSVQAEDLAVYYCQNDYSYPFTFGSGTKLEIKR ?
-- reply 12

-- ask Now the same for chimeric antibody xi28G3 (antibody, human IgG1, kappa, V domains shown, Mouse variable regions on human IgG1/kappa; defucosylated, expressed in FUT8-knockout CHO-S cells; also called chimeric 28G3) VH: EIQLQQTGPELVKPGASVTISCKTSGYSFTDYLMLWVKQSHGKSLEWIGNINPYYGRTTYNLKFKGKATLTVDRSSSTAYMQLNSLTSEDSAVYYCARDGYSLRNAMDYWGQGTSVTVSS VL: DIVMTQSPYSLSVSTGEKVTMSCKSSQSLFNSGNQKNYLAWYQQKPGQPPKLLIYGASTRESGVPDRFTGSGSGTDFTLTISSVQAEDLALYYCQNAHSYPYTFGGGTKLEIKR
-- reply 0.121

-- ask Ok, now chimeric antibody xi40F6 (antibody, human IgG1, kappa, V domains shown, Mouse variable regions on human IgG1/kappa; defucosylated, expressed in FUT8-knockout CHO-S cells; also called chimeric 40F6) VH: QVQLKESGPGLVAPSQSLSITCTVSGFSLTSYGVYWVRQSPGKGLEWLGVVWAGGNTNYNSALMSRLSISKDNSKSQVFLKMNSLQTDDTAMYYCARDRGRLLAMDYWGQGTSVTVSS VL: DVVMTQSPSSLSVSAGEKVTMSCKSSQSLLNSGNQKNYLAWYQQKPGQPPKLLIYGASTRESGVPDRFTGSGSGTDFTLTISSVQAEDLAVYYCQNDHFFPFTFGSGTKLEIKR
-- reply 0.147

Would you mind listing ADCC EC50, Jurkat-CD16a v158-NFAT-luciferase effector cells, NUGC-4 target cells for each of the following binders?
1. chimeric antibody xi34G6 (antibody, human IgG1, kappa, V domains shown, Mouse variable regions on human IgG1/kappa; defucosylated, expressed in FUT8-knockout CHO-S cells; also called chimeric 34G6) VH: QVQLKESGPDLVAPSQSLSITCTVSGFSLTSYGVHWVRQPPGKGLEWLVVIWSDGSTTYNSALKSRLSISKDNSKSQVFLKMNSLQTDDTAIYYCARHAYYGNSFDYWGQGTTLTVSS VL: DIVMTQSPSSLTVTAGEKVTMSCKSSQSLLNSGNQKSYLTWYQQKPGQPPKLLIYWASTRESGVPDRFTGSGSGTDFTLTISSVQAEDLAVYYCQNVYIFPLTFGAGTKLELKR
2. chimeric antibody xi22F12 (antibody, human IgG1, kappa, V domains shown, Mouse variable regions on human IgG1/kappa; defucosylated, expressed in FUT8-knockout CHO-S cells; also called chimeric 22F12) VH: QVQLKESGPGLVAPSQSLSITCTVSGFSLTSYGVYWVRQPPGKGLEWLGVIWAGGSTNYNSALMSRLSINKDNSKSQVFLKMNSLQTDDTAMYYCARDRGRLLSMDYWGQGTSVTVSS VL: DIVMTQSPSSLSVSAGEKVTMSCRSSQSLLNSGNQKNYLAWYQQKPGQPPKLLIYGASTRESGVPDRFTGSGSGTDFTLTIGSVQAEDLAVYYCQNVHFFPFTFGSGTKLEIKR

-- reply
0.214
0.083

From: patent US20240409629A1
